// reported melting point for each item listed
Residues, ends and D or L forms follow the SMILES beside them. *: point of attachment. Cbz = O=C(OCc1ccccc1)*; Boc = CC(C)(C)OC(=O)*; OBn = c1ccc(CO*)cc1

These solved cases illustrate the format of a correct answer.
Reported melting point of CSCCC(NC(=O)C(CCC(N)=O)NC(=O)OC(C)(C)C)C(=O)NC(C)C(=O)NC(C(=O)NC(CCCCNC(=O)OCc1ccccc1)C(=O)OCc1ccccc1)C(C)C (stereo unspecified) (Boc-QMAVK(Cbz)-OBn; configuration not given here) : 238 to 241 °C

Reported melting point of COc1cc(OC)c(/C=C/C(c2ccc(OC)c(NC(=O)CN3CCN(C)CC3)c2)S(=O)(=O)C(/C=C/c2c(OC)cc(OC)cc2OC)c2ccc(OC)c(NC(=O)CN3CCN(C)CC3)c2)c(OC)c1 (stereo unspecified) : 176 to 178 °C

Reported melting point of "CCCCCCCCCCCCCCCCCCOc1cc(OCCCCCc2cccc(OCc3ccccc3)c2OCc2ccccc2)cc(N(CC(=O)O)CC(=O)O)c1" : 79 to 81 °C

Reported melting point of NCC1Cc2cc(F)cc(-c3ccoc3)c2O1 (stereo unspecified) : 236 to 239 °C

Reported melting point of "C=CC1=C(C)c2cc3[nH]c(cc4nc(cc5[nH]c(cc1n2)c(C)c5CCC(=O)OC(CN(C)C)CN(C)C)C(CCC(=O)OC(CN(C)C)CN(C)C)=C4C)c(C)c3C=C" : 181 to 190 °C

Next, consider the following compound.
Reported melting point of "O=S(=NCCN1CCOCC1)(c1cccs1)c1cccs1" : 190 °C

Origin of the recorded values: a melting point compilation (Tetko et al.)
